System: A549 cells
assay.explanation: Cell viability by MTT method in A549 cells
Assay type: cell-based
Design: concentration or dose not given beside the values
condition.summary: 72 hours treatment
Reported Cell Viability (% inhibition) (A549) is given for each of the following compounds.
Express the result in % but write the number alone.

Use the examples below as a reference point.
molecular.string	value.type	reported.result
COc1ccc(-c2csc(NC(=O)[C@H](CNC(=O)c3ccccc3)NS(=O)(=O)c3ccc(C)cc3)n2)cc1	Cell Viability (% inhibition) (A549)	71.56
Cc1ccc(S(=O)(=O)N[C@@H](Cc2c[nH]c3ccccc23)C(=O)N2CCOCCOCCOCC2)cc1	Cell Viability (% inhibition) (A549)	29.36
COc1ccc(-c2nnc(NC(=O)[C@H](CC(C)C)NS(=O)(=O)c3ccc(C)cc3)s2)cc1	Cell Viability (% inhibition) (A549)	36.61

Attention now shifts to the item below.
[ask] Report the value of Cell Viability (% inhibition) (A549) obtained on A549 cells for "O=C(O)[C@H](Cc1c[nH]c2ccccc12)NS(=O)(=O)c1ccc(Br)cc1" .
[reply] 10.28

Values were extracted from patent US20220204497A1.
